B1: library; a variant is named by its letters at N, in order (parent)
chain: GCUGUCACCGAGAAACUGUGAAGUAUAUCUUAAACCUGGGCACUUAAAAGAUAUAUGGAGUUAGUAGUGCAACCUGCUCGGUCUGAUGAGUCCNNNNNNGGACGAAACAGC

# Variants of: B1
# TEST PROTOCOL: FACS-Seq fitted mean relative fluorescence mCherry/BFP with ligand (log10 relative fluorescence); HEK293T; ligand: cyclic di-GMP (c-di-GMP-II aptamer); ligand concentration (+) FACS-Seq: 1 mM; higher = higher reporter protein expression
# RUN PARAMETERS: ligand present: yes
FACS-Seq fitted mean (log10) of -0.08 or higher: met. Under -0.08: not met.

| VARIANT DESCRIPTOR | CLASS LABEL |
| --- | --- |
| AACGAU | met |
| AUUGGU | met |

Check this variant for FACS-Seq fitted mean (log10) at or above -0.08: `CGAUGC`
met

Check this variant for FACS-Seq fitted mean (log10) at or above -0.08: `AUGGAU`
not met

Check this variant for FACS-Seq fitted mean (log10) at or above -0.08: `CGGACU`
not met

Check this variant for FACS-Seq fitted mean (log10) at or above -0.08: `GCGGAG`
met

Check this variant for FACS-Seq fitted mean (log10) at or above -0.08: `ACAAAA`
not met

Check this variant for FACS-Seq fitted mean (log10) at or above -0.08: `CAUAUA`
not met

Check this variant for FACS-Seq fitted mean (log10) at or above -0.08: `AUAGGU`
not met

Check this variant for FACS-Seq fitted mean (log10) at or above -0.08: `GACUUU`
met

Check this variant for FACS-Seq fitted mean (log10) at or above -0.08: `GACGAU`
met

Check this variant for FACS-Seq fitted mean (log10) at or above -0.08: `UAAACA`
met
